# target entity: SIRT1 (Homo sapiens, UniProt Q96EB6)
# Sequence (Q96EB6 whole entry): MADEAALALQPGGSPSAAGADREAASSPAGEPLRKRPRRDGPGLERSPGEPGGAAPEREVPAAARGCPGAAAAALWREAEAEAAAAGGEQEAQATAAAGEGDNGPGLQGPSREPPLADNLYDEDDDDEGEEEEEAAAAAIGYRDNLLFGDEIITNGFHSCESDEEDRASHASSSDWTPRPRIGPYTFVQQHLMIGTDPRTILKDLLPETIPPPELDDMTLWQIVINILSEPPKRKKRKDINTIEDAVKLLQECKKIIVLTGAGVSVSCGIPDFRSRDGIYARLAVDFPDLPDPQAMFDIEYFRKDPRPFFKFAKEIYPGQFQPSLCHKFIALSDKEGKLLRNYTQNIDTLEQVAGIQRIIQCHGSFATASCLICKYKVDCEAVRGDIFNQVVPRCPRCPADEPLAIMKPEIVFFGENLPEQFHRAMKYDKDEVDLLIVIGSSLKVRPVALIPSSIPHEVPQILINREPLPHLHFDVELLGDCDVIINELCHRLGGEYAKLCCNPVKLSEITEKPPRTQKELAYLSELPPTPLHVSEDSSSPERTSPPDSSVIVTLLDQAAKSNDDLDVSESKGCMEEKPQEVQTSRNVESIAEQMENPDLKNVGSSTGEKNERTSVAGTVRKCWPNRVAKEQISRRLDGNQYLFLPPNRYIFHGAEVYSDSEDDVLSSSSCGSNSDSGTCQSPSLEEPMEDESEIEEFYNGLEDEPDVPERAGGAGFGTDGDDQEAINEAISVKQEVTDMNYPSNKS
# assay explanation: Mass spectrometry based SIRT1 deacetylation assay (activation)
# Type: biochemical
# experimental context: 10 nM SIRT1, 0.5 μM peptide substrate, 120 μM βNAD+, 25 min at 25° C.
property label: EC1.5 (concentration of test compound that results in 150% activation of SIRT1)

Here are 5 molecules together with their reported answers.
INSERT INTO results (molecule, value_observed) VALUES
  ('O=C(Nc1nccs1)c1cccc2ncc(-c3ccccc3)nc12 [Compound 116]', 'C (EC1.5>25 uM)'),
  ('O=C(Nc1cnccn1)c1cccc2ccc(-c3ccccc3)nc12 [Compound 15]', 'A (EC1.5<1.0 uM)'),
  ('O=C(Nc1ccncn1)c1cccc2ccc(-c3cccc(OC4CCNCC4)c3)nc12 [Compound 133]', 'A (EC1.5<1.0 uM)'),
  ('O=C(Nc1ccc(CN2CCCC2)nc1)c1cccc2ccc(-c3cccc(C(F)F)c3)nc12 [Compound 290]', 'A (EC1.5<1.0 uM)'),
  ('O=C(Nc1cccc2ccc(-c3cccc(OC(F)(F)F)c3)nc12)c1cccc(F)c1 [Compound 21]', 'C (EC1.5>25 uM)');

For the molecule shown here, O=C(Nc1cccc(OC2CCNCC2)c1)c1cccc2ccc(-c3cccc(C(F)(F)F)c3)nc12 [Compound 256] , give the reported EC1.5 (concentration of test compound that results in 150% activation of SIRT1).
A (EC1.5<1.0 uM)

Need EC1.5 (concentration of test compound that results in 150% activation of SIRT1) of O=C(Nc1ccc(F)cn1)c1cccc2ccc(-c3cccnc3)nc12 [Compound 265] , thanks.
C (EC1.5>25 uM)
